# System: Brugia malayi
# EXPERIMENT_NOTES: Antifilarial activity against Brugia malayi adult worm assessed as inhibition of parasite motility after 48 hrs by microscopic analysis
# Type: functional, organism-based
EXPERIMENTAL_ENDPOINT: IC50 (µM)

1. IVERMECTIN | 3.05

---

# EXPERIMENT_NOTES: Cytotoxicity against African green monkey Vero C1008 cells assessed as cell death by three-fold serial dilution method
# Assay type: cell-based
# CONDITION_CONTEXT: chlorocebus sabaeus, vero
EXPERIMENTAL_ENDPOINT: CC50

1) IVERMECTIN | 230 µM

Data credit: ChEMBL document CHEMBL3259763
